Provenance of the data: the supplement of paper PMC10338343

test system: MIWI (PIWIL1) piRISC loaded with L1MC piRNA (30 nt); assay: pre-steady-state target cleavage rate (min^-1); higher = faster piRNA-guided slicing of the target; settings: guide: L1MC piRNA 5'p-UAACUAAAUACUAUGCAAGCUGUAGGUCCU; auxiliary factor: 500 nM mouse GTSF1;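 also: 1 nM active piRISC with 0.1 nM target library at 33 °C single turnover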
In all, about 8,200 sequences were measured (“pre-steady-state target cleavage rate”: median about 0.024, highest 2% from about 1.3 on). This excerpt belongs to a sample that is enriched for the highest values.
MEASURED ATTRIBUTE: pre-steady-state target cleavage rate
Lab note: jot down the number only; don't add units.

Below: 3 sequences and their reported pre-steady-state target cleavage rate.
UGCUCCUACAGCUUGCAUAGUAUUUAGAAA
0.429
AGGUCCUUCAGCUUGCAUAGUAUUUAGUUA
1.42
UGGACCUACAGCUUGAUAGUAUUUAGUUA
1.03

*Q* Give a short answer stating reported pre-steady-state target cleavage rate for `AGGACCUACAGCUUGACAUAGUAUUUAGUUA` .
*A* 1.07

*Q* Answer with the recorded pre-steady-state target cleavage rate for the sequence listed here: `UCCUCGCUACAGCUUGCAUAGUAUUUAGUUA`
*A* 0.831

*Q* // Input: `UCCUCGUACAGCUUGCUUAGUAUUUAGUUA` . Output its pre-steady-state target cleavage rate only.
*A* 1.51

*Q* Indicate its recorded pre-steady-state target cleavage rate; the sequence in question is `AGGACCUUGUGCUUGCAUAGUAUUUAGUUA`
*A* 0.869

*Q* Read off the recorded pre-steady-state target cleavage rate for `UCCUCCUUCAGCUUGCAUAGUAUUUAGUUA`
*A* 1.23

*Q* Specify reported pre-steady-state target cleavage rate for the sequence shown: `UCCAGGUACAGCUUGCAUAGUAUUUAGUUA`
*A* 1.09

*Q* Please list pre-steady-state target cleavage rate recorded for the sequence `UCCUGGUUACAGCUUGCAUAGUAUUUAGUUA`
*A* 1.01

*Q* Using known records, supply pre-steady-state target cleavage rate for `UCCUGGAACAGGUUGCAUAGUAUUUAGAAA`
*A* 0.362

*Q* Consider the sequence `AGCUCCUACAGCUUGCAUAGUAUUUAGUAA` and give its recorded pre-steady-state target cleavage rate.
*A* 1.01

*Q* Return pre-steady-state target cleavage rate (reported value) for this sequence: `UCCUGGAUGAGCUUGCAUAGUAUUAUGAAA`
*A* 0.0112

###

system: MIWI (PIWIL1) piRISC loaded with L1MC piRNA (30 nt); assay: pre-steady-state target cleavage rate (min^-1); higher = faster piRNA-guided slicing of the target; conditions: guide: L1MC piRNA 5'p-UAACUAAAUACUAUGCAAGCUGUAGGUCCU; auxiliary factor: none (no GTSF1);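 also: 1 nM active piRISC with 0.1 nM target library at 33 °C single turnover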
The full ranking holds about 8,200 sequences; the median of “pre-steady-state target cleavage rate” is about 0.024, and the highest 2% start at about 1.3. The full list was thinned out, with the highest values kept by preference.
Attribute: pre-steady-state target cleavage rate

Consider the following illustrative entries.
UCCACCUACAGCUUGCAUAGUAUUUAGUA
0.00981
UCCACCUACAGCAUGGAUAGUAUUUAGUUA
0.0231
UCGACCUACAGCUUAGCAUAGUAUUUAGUUA
0.0251
UCGACCUACAGCUUGCAUAGUAGUUUAGUUA
0.0134
AGGACCUACAGCUUGGCAUAGUAUUUAGUUA
0.0407

// next item, pre-steady-state target cleavage rate requested
*Q* Name the recorded pre-steady-state target cleavage rate of the sequence listed here: `UGGACCUACAGCUUAGCAUAGUAUUUAGUUA`
*A* 0.0281

###

Reported values of pre-steady-state target cleavage rate for individual entries
test system: MIWI (PIWIL1) piRISC loaded with L1MC piRNA (30 nt); experiment: pre-steady-state target cleavage rate (min^-1); higher = faster piRNA-guided slicing of the target; details: guide: L1MC piRNA 5'p-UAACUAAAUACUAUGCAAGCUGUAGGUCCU; auxiliary factor: none (no GTSF1);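 also: 1 nM active piRISC with 0.1 nM target library at 33 °C single turnover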
In all, about 8,200 sequences were measured (“pre-steady-state target cleavage rate”: median about 0.024, highest 2% from about 1.3 on). This excerpt belongs to a sample that is enriched for the highest values.
Lab note: record just the number, no unit beside it.

A selection of reference data follows.
AGGACCUACAGCUUGCAUAGUAUUUAGUUC [g2:g30:cont:t1C]
0.0568
UCGACACUACAGCUUGCAUAGUAUUUAGUUA
0.0557
UCGACCAUACAGCUUGCAUAGUAUUUAGUUA
0.0901
UGGACAUACAGCUUGCAUAGUAUUUAGUUA
0.0916

*Q* Write pre-steady-state target cleavage rate of `AGGACCUACAGCUUGGAUAGUAUUUUGUUA` ; system used: MIWI (PIWIL1) piRISC loaded with L1MC piRNA (30 nt);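 also: 1 nM active piRISC with 0.1 nM target library at 33 °C single turnover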
*A* 0.0416

###

tested on: MIWI (PIWIL1) piRISC loaded with L1MC piRNA (30 nt); experiment: pre-steady-state target cleavage rate (min^-1); higher = faster piRNA-guided slicing of the target; details: guide: L1MC piRNA 5'p-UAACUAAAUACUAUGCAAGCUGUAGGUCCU; auxiliary factor: none (no GTSF1);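 also: 1 nM active piRISC with 0.1 nM target library at 33 °C single turnover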
Whole data set: some 8,200 sequences, median “pre-steady-state target cleavage rate” near 0.024, cut for the highest 2% near 1.3. The entries come from a sample that favours the highest values as a whole.
Given measured pre-steady-state target cleavage rate, output true if it is greater than or equal to 0.03 and false if not.

*Q* Quick check: does `UCCUGGUACAGCUUGGAUAGUAUUUAGUAA` have pre-steady-state target cleavage rate greater than or equal to 0.03?
*A* false

*Q* # check: pre-steady-state target cleavage rate of `UCCUGGAUGUCCUUGCAUAGUAUUUAGUCA` is greater than or equal to 0.03
*A* false

*Q* Dear colleague, could you confirm whether `UCCUCGUACAGCUUGCAUAGUAAUUAGUUA` has pre-steady-state target cleavage rate at or above 0.03?
*A* false

*Q* Dear colleague, could you confirm whether `AGGAACUACAGCUUGCAUAGUAUUUAGUUA` has pre-steady-state target cleavage rate at or above 0.03?
*A* true

*Q* For this sequence, is measured pre-steady-state target cleavage rate 0.03 or higher? `UGGAACUACAGCUUGCAUAGUAUUUAGUUA`
*A* true

###

The entries below are paired with their reported pre-steady-state target cleavage rate.
test system: MIWI (PIWIL1) piRISC loaded with L1MC piRNA (30 nt); assay: pre-steady-state target cleavage rate (min^-1); higher = faster piRNA-guided slicing of the target; details: guide: L1MC piRNA 5'p-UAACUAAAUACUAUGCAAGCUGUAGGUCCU; auxiliary factor: 500 nM mouse GTSF1;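 also: 1 nM active piRISC with 0.1 nM target library at 33 °C single turnover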
Over roughly 8,200 sequences, “pre-steady-state target cleavage rate” has its median near 0.024; the highest 2% begin near 1.3. The entries come from a sample that favours the highest values as a whole.
Would you mind answering with just the numeric figure?

Below: 3 sequences and their reported pre-steady-state target cleavage rate.
UCGACCUACAGCAUGCUUAGUAUUUAGUUA
0.915
UCCUGGAACAGCUUGCAUAGUUUUUUGUUA
0.197
AGGAGCUACAGGUUGCAUAGUAUUUAGUUA
1.17

Now consider a different sequence.
*Q* Provide only the value of recorded pre-steady-state target cleavage rate for `UCCUGGAUGAGCUUGCAUGGUAUUUAGUUA`
*A* 0.743

###

tested on: MIWI (PIWIL1) piRISC loaded with L1MC piRNA (30 nt); assay: pre-steady-state target cleavage rate (min^-1); MIWI and MILI are mouse PIWI proteins and EfPiwi is from a freshwater sponge; tags in brackets are library labels; higher = faster piRNA-guided slicing of the target; conditions: guide: L1MC piRNA 5'p-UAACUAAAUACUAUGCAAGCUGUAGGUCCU; auxiliary factor: 500 nM mouse GTSF1;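 also: 1 nM active piRISC with 0.1 nM target library at 33 °C single turnover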
Whole data set: some 8,200 sequences, median “pre-steady-state target cleavage rate” near 0.024, cut for the highest 2% near 1.3. Shown is part of a subset that was picked to be rich in the highest values.
Given measured pre-steady-state target cleavage rate, output MET if it is greater than or equal to 1 and NOT MET if not.

UCGACCACAGCUUGCAUAGUAUUUAGUUA
MET
AGGACCUACGCUUGCAUAGUAUUUAGUUA
MET
UGGACCUACACGCUUGCAUAGUAUUUAGUUA
MET

*Q* Given `UGGACCUACAGCAAGCAUAGUAUUUAGUUA` , state whether its pre-steady-state target cleavage rate is at least 1.
*A* MET

*Q* hey, is pre-steady-state target cleavage rate for this one >= 1? `AGGACCACAGCUUGCAUAGUAUUUAGUUA`
*A* MET

*Q* Test whether the sequence `UGGACCUACAGCAAGCAUAGUAUUUAGUAA` records pre-steady-state target cleavage rate of 1 or higher.
*A* NOT MET

*Q* I'd appreciate it if you could say whether `UCGACCUACAGCAAGCAUAGUAUUUAGAAA` has pre-steady-state target cleavage rate at least equal to 1.
*A* NOT MET

*Q* Reported pre-steady-state target cleavage rate at or above 1? `UCCACCUAGAGCUUGCAUAGUUUUUAGUUA`
*A* NOT MET
